- Tested on: INSTI-resistant HIV-1 mutants (HXB2)
- Method Description: microbe, parasite or virus in culture
- Type: cell-based
- Test Conditions: Human immunodeficiency virus 1, HXB2, IN mutant N155H
Entries and their measured EC50 follow.
I only need the number, in nM, no unit after it.

See these solved cases before continuing.
{"columns": ["Chemical String", "Unit Name", "EC50"],
 "data": [
  ["C[C@@H]1CCO[C@H]2Cn3cc(C(=O)NCc4ccc(F)cc4F)c(=O)c(O)c3C(=O)N12", "nM", 2.4],
  ["O=C(NCc1c(F)cc(F)cc1F)c1cn2c(c(O)c1=O)C(=O)N1[C@H]3CC[C@H](C3)O[C@@H]1C2", "nM", 1.6],
  ["O=C1Nc2ccc(Cl)cc2[C@@](C#CC2CC2)(C(F)(F)F)O1", "nM", 1.6]
]}

// EC50 lookup, compound = `Cc1nnc(C(=O)NC(C)(C)c2nc(C(=O)NCc3ccc(F)cc3)c(O)c(=O)n2C)o1` , result: 188

----------
- System: inhibitor-selected HIV-1 IIIb passages
- Method Description: Phenotypic profile of selected HIV-1 passages
- Assay type: cell-based
- Test Conditions: Human immunodeficiency virus 1, IIIB, selected virus EVG P6 (day 56, 115 nM)
Value Type: EC50 (nM)
I only need the number, in nM, no unit after it.

// EC50 lookup, compound = `Cc1nnc(C(=O)NC(C)(C)c2nc(C(=O)NCc3ccc(F)cc3)c(O)c(=O)n2C)o1` , result: 19.9

----------
- System: INSTI-resistant HIV-1 mutants (HXB2)
- Method Description: microbe, parasite or virus in culture
- Format: cell-based
- Test Conditions: Human immunodeficiency virus 1, HXB2, IN mutant E138K/Q148K
Entries and their measured EC50 follow.
I only need the number, in nM, no unit after it.

See these solved cases before continuing.
{"columns": ["Chemical String", "Unit Name", "Endpoint Result"],
 "data": [
  ["O=C1Nc2ccc(Cl)cc2[C@@](C#CC2CC2)(C(F)(F)F)O1", "nM", 1.9],
  ["Cc1nnc(C(=O)NC(C)(C)c2nc(C(=O)NCc3ccc(F)cc3)c(O)c(=O)n2C)o1", "nM", 1530],
  ["C[C@@H]1CCO[C@H]2Cn3cc(C(=O)NCc4ccc(F)cc4F)c(=O)c(O)c3C(=O)N12", "nM", 13.7]
]}

Now take the following compound into account.
// EC50 lookup, compound = `O=C(NCc1c(F)cc(F)cc1F)c1cn2c(c(O)c1=O)C(=O)N1[C@H]3CC[C@H](C3)O[C@@H]1C2` , result: 13.7

----------
- System: HIV-1 clinical isolates
- Method Description: Antiviral assay against HIV-1 clinical isolates in fresh human PBMCs (RT endpoint)
- Test Conditions: Human immunodeficiency virus 1, BAL, PBMC, HIV-1 subtype B isolate BaL, human PBMCs
Entries and their measured EC50 follow.

See these solved cases before continuing.
{"columns": ["Chemical String", "Assayed Target", "Endpoint Result"],
 "data": [
  ["O=C(NCc1c(F)cc(F)cc1F)c1cn2c(c(O)c1=O)C(=O)N1[C@H]3CC[C@H](C3)O[C@@H]1C2", "HIV-1 clinical isolates", "0.35 nM"],
  ["Cc1cn([C@H]2C[C@H](N=[N+]=[N-])[C@@H](CO)O2)c(=O)[nH]c1=O", "HIV-1 clinical isolates", "3.8 nM"]
]}

// EC50 lookup, compound = `C[C@@H]1CCO[C@H]2Cn3cc(C(=O)NCc4ccc(F)cc4F)c(=O)c(O)c3C(=O)N12` , result: 0.32 nM

----------
- Assayed Target: HIV-1 IN 3′-processing activity (Human immunodeficiency virus type 1 group M subtype B, UniProt P04585)
- Construct: Recombinant IN containing an N-terminal 6His tag was expressed in BL21(DE3) pLysS bacteria; 6His (N)
- Method Description: IN 3′-processing assay (HTRF)
- Test Conditions: purified recombinant HIV-1 IN; mean ± SD, 5 experiments
Value Type: pIC50
Conceptually, pIC50 converts a concentration in mol/L into minus its log10.

// pIC50 lookup, compound = `O=C(NCc1c(F)cc(F)cc1F)c1cn2c(c(O)c1=O)C(=O)N1[C@H]3CC[C@H](C3)O[C@@H]1C2` , result: 6.62

----------
- Test system: inhibitor-selected HIV-1 IIIb passages
- Method Description: Phenotypic profile of selected HIV-1 passages
- Format: cell-based
- Test Conditions: Human immunodeficiency virus 1, IIIB, HIV-1-IIIb (unselected)
Value Type: EC50
For clarity, give the value followed by its unit.

{"columns": ["Chemical String", "EC50"],
 "data": [
  ["C[C@@H]1CCO[C@H]2Cn3cc(C(=O)NCc4ccc(F)cc4F)c(=O)c(O)c3C(=O)N12", "2.5 nM"],
  ["Cc1nnc(C(=O)NC(C)(C)c2nc(C(=O)NCc3ccc(F)cc3)c(O)c(=O)n2C)o1", "8.8 nM"],
  ["O=C(NCc1c(F)cc(F)cc1F)c1cn2c(c(O)c1=O)C(=O)N1[C@H]3CC[C@H](C3)O[C@@H]1C2", "2.2 nM"],
  ["COc1cc2c(cc1Cc1cccc(Cl)c1F)c(=O)c(C(=O)O)cn2[C@H](CO)C(C)C", "2.1 nM"]
]}

Now take the following compound into account.
// returns EC50 for `O=C1Nc2ccc(Cl)cc2[C@@](C#CC2CC2)(C(F)(F)F)O1` with inhibitor-selected HIV-1 IIIb passages; value = 1.6 nM

----------
- Test system: HIV-1 clinical isolates
- Method Description: Antiviral assay against HIV-1 clinical isolates in fresh human PBMCs (RT endpoint)
- Test Conditions: Human immunodeficiency virus 1, PBMC, read-out: range of EC50s against clinical isolates, 14 HIV-1 isolates and one HIV-2 isolate, human PBMCs
pEC50: −log10 of the molar value.
Value Type: pEC50

// pEC50 lookup, molecule = `O=C(NCc1c(F)cc(F)cc1F)c1cn2c(c(O)c1=O)C(=O)N1[C@H]3CC[C@H](C3)O[C@@H]1C2` , result: 8.77 to 10.40

----------
- Method Description: in vitro
- Test Conditions: human
Value Type: CC50

// CC50 lookup, compound = `CCOC(=O)/C=C/[C@H](C[C@@H]1CCNC1=O)NC(=O)[C@@H](CC(=O)[C@@H](NC(=O)c1cc(C)on1)C(C)C)Cc1ccc(F)cc1` , result: > 10 µM

----------
- Assayed Target: HIV-1 IN strand transfer activity (Human immunodeficiency virus type 1 group M subtype B)
- Construct: Recombinant IN containing an N-terminal 6His tag was expressed in BL21(DE3) pLysS bacteria; 6His (N)
- Method Description: IN strand transfer assay (HTRF)
- Test Conditions: purified recombinant HIV-1 IN; mean ± SD, 3 experiments; read-out: IC50 Inhibition of strand transfer
Value Type: pIC50
Conceptually, pIC50 converts a concentration in mol/L into minus its log10.

// pIC50 lookup, molecule = `O=C(NCc1c(F)cc(F)cc1F)c1cn2c(c(O)c1=O)C(=O)N1[C@H]3CC[C@H](C3)O[C@@H]1C2` , result: 8.12

----------
- System: HIV-1 BaL
- Test Conditions: primary CD4+ T-cells, 35 days, drug at tissue culture equivalent clinical Cmin (FTC 160 × EC50)
Value Type: p24+ Wells

{"columns": ["Chemical String", "Assayed Target", "Endpoint Result"],
 "data": [
  ["COc1cc2c(cc1Cc1cccc(Cl)c1F)c(=O)c(C(=O)O)cn2[C@H](CO)C(C)C", "HIV-1 BaL", "23/24"]
]}

// p24+ Wells lookup, compound = `Cc1nnc(C(=O)NC(C)(C)c2nc(C(=O)NCc3ccc(F)cc3)c(O)c(=O)n2C)o1` , result: 12/12

// p24+ Wells lookup, compound = `O=C1Nc2ccc(Cl)cc2[C@@](C#CC2CC2)(C(F)(F)F)O1` , result: 2/12

// p24+ Wells lookup, compound = `C[C@@H]1CCO[C@H]2Cn3cc(C(=O)NCc4ccc(F)cc4F)c(=O)c(O)c3C(=O)N12` , result: 0/24

// p24+ Wells lookup, compound = `Cc1cc(/C=C/C#N)cc(C)c1Nc1ccnc(Nc2ccc(C#N)cc2)n1` , result: 6/24

// p24+ Wells lookup, compound = `Nc1nc(=O)n([C@@H]2CS[C@H](CO)O2)cc1F` , result: 14/24

// p24+ Wells lookup, compound = `COC(=O)N[C@H](C(=O)N[C@@H](Cc1ccccc1)[C@@H](O)CN(Cc1ccc(-c2ccccn2)cc1)NC(=O)[C@@H](NC(=O)OC)C(C)(C)C)C(C)(C)C` , result: 0/24

// p24+ Wells lookup, compound = `O=C(NCc1c(F)cc(F)cc1F)c1cn2c(c(O)c1=O)C(=O)N1[C@H]3CC[C@H](C3)O[C@@H]1C2` , result: 0/24
